- STUDY TARGET: Human Topo I (topoisomerase I) (Homo sapiens, UniProt P11387)
- Construct: gene TOP1
- Sequence (P11387 2-765): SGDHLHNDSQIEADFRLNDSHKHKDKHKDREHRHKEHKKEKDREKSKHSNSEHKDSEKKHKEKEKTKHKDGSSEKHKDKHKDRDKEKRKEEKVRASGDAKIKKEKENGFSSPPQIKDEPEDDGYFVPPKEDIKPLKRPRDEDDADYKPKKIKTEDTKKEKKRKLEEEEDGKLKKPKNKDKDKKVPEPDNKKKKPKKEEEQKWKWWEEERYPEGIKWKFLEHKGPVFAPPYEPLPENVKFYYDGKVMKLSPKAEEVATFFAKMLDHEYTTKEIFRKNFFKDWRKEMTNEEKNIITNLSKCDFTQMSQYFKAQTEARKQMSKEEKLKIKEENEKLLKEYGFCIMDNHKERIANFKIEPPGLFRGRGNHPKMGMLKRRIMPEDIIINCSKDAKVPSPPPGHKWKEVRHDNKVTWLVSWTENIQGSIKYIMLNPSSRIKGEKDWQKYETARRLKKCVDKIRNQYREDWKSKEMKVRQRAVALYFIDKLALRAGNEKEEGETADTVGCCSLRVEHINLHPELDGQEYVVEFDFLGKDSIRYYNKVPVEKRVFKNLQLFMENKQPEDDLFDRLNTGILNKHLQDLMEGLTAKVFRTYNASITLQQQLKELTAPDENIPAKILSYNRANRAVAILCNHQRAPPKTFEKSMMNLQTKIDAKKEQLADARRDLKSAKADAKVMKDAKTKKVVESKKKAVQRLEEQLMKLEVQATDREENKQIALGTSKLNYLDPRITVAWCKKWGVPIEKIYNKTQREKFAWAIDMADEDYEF
- ASSAY: Topo I DNA relaxation fluorescence plate assay (Inspiralis)
- Type: biochemical
Measured IC50 values are reported for all entries that follow.
Quick reminder: number only, in µM, skip the unit.

Short answer please: IC50, Human Topo I (topoisomerase I) (Homo sapiens, UniProt P11387), entry CCc1c2c(nc3ccc(O)c(CNC)c13)-c1cc3c(c(=O)n1C2)COC(=O)[C@]3(O)CC
101

For the next question, use this compound.
Short answer please: IC50, Human Topo I (topoisomerase I) (Homo sapiens, UniProt P11387), entry CCc1c2c(nc3ccc(O)c(CN4CCOCC4)c13)-c1cc3c(c(=O)n1C2)COC(=O)[C@]3(O)CC
48.7
